Below, each entry is listed with its recorded IC50.
TARGET: NAD-dependent protein deacetylase sirtuin-2 (Homo sapiens)
Sequence (Q8IXJ6 whole entry): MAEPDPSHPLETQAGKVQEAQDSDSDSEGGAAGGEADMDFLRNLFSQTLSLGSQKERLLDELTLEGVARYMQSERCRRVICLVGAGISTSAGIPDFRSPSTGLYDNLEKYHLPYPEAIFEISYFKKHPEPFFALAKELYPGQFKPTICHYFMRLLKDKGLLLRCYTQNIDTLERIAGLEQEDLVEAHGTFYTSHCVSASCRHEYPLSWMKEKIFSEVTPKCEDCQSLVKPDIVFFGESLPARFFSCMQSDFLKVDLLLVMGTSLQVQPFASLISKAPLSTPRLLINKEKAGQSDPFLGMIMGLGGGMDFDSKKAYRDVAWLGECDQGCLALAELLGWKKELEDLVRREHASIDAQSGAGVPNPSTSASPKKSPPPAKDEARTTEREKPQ
ASSAY: Inhibition of human recombinant Sirt2 using ZMAL as substrate after 4 hrs by fluorescent deacetylase assay
CONDITION NOTES: read-out: IC50

Illustrative cases are given below, each with its answer.
INPUT SMILES | REPORTED ENDPOINT | REPORTED MEASUREMENT
O=C1NC(=S)NC(=O)C1=Cc1ccc(OCc2cccc3ccccc23)cc1 | IC50 | 2.6 µM
CC(C)Oc1ccc(C=C2C(=O)NC(=S)NC2=O)cc1 | IC50 | 5.8 µM
O=C1NC(=S)NC(=O)C1=Cc1cn(-c2ccccc2)nc1-c1ccc(Cl)cc1 | IC50 | 3.8 µM
O=C1NC(=S)NC(=O)C1=Cc1cc(OCc2ccc(Br)cc2)ccc1Cl | IC50 | 1.8 µM
O=C1NC(=S)NC(=O)C1=Cc1ccc(-c2ccc(Cl)cc2)o1 | IC50 | 6.5 µM

Shifting focus to the compound that follows.
In: Which IC50 value is on record for COc1ccc(CC2C(=O)NC(=S)NC2=O)cc1OCc1ccccc1 ?
Out: 5.8 µM
